molecular target: CXCL8 (Homo sapiens)
Sequence (P10145 23-99): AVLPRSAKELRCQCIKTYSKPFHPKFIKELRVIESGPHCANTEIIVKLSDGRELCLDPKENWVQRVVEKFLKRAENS
Parameter Measured: Kd (mM)
State just the number; it will be interpreted in mM.

If you can, please state the reported Kd value of N[C@@H](Cc1ccc(OS(=O)(=O)O)cc1)C(=O)O . 35.2
